# Organism: Rattus norvegicus
# EXPERIMENT_SUMMARY: Stimulation of levator ani muscle weight in castrated Sprague-Dawley rat
# Assay type: functional
PROPERTY_NAME: ED50 (mg/kg)

>>> print(df.to_string())
                                   molecule  result_comparator  data_value
0  CCC(=O)O[C@H]1CC[C@H]2[C@@H]3CCC4=CC(=O)CC[C@]4(C)[C@H]3CC[C@]12C [TESTOSTERONE PROPIONATE]                  =        0.17
1  CCc1c(NC(=O)C2(C)CC(C(F)(F)F)=NN2)ccc(C#N)c1C(F)(F)F (stereo unspecified)                  =          17
2  CC1(C(=O)Nc2ccc(C#N)c(C(F)(F)F)c2)CC(C(F)(F)F)=NN1 (stereo unspecified)                  =         7.9
3  C[C@]1(C(=O)Nc2ccc(C#N)c(C(F)(F)F)c2)CC(C(F)(F)F)=NN1                  >          30
4  CCC1(C(=O)Nc2ccc(C#N)c(C(F)(F)F)c2)CC(C(F)(F)F)=NN1 (stereo unspecified)                  =          21
5  C[C@@]1(C(=O)Nc2ccc(C#N)c(C(F)(F)F)c2)CC(C(F)(F)F)=NN1                  =         3.8
